experiment: chemical genetic growth profiling, strain panel (AID 1159580);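 further: tested at 20 µM; growth read once vehicle control cultures reached saturation at 30 °C; 1 = growth at the plate median or of vehicle wells; lower values mean less growth of the strain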; conditions: S. cerevisiae deletion strains, growth OD, locus YHR129C, strain ARP1, active compounds read low
Out of some 5,500 compounds screened, about 2,000 (36%) were called active. Not shown: some 18% with an inconclusive outcome. The list shows a part of the results.
Listed next: entries and their corresponding normalized growth.
MEASURED_PROPERTY: normalized growth

COMPOUND: CC(=O)OCC1(C)CCC2(C)CCC3(C)C4=CCc5c(cc(OC(C)=O)c(OC(C)=O)c5C)C4(C)CCC3(C)C2C1 (stereo not given)
OBS_VALUE: 1.02
//
COMPOUND: C=C(C)[C@H]1CC=C(C(=O)O)CC1
OBS_VALUE: 0.984
//
COMPOUND: COC(=O)[C@]1(C)CC[C@]2(C)CC[C@]3(C)C4=CCc5c(cc(O)c(O)c5C)[C@]4(C)CC[C@@]3(C)C2C1 (stereo not given in full)
OBS_VALUE: 0.962
//
COMPOUND: CC(=O)Nc1ccc(S(=O)(=O)Nc2ccc([N+](=O)[O-])cc2)cc1
OBS_VALUE: 1
//
COMPOUND: COc1c2c(cc3c1OCO3)CCN(C)C2
OBS_VALUE: 1

====

test: chemical genetic growth profiling, strain panel (AID 1159580);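 further: tested at 20 µM; growth read once vehicle control cultures reached saturation at 30 °C; 1 = growth at the plate median or of vehicle wells; lower values mean less growth of the strain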; conditions: S. cerevisiae deletion strains, growth OD, locus YJL154C, strain vps35
The campaign covered roughly 5,500 compounds. About 2,000 (36%) were called active. Inconclusive results (about 18%) are left out. Cut-off read from the data, not from the text of the source: active = normalized growth mostly below about 0.91 (no sharp cut-off); inconclusive = no clear call, values can overlap the other calls; inactive = mostly above about 0.92. The list shows a part of the results.
Possible outcomes: class 1 = active, class 0 = inactive

SMILES_INPUT: CC(=O)Nc1cc([As](=O)(O)O)ccc1O
CLASS_ASSIGNMENT: class 0
//
SMILES_INPUT: O=[N+]([O-])c1cc(O)c(O)c([N+](=O)[O-])c1
CLASS_ASSIGNMENT: class 0
//
SMILES_INPUT: O=[N+]([O-])c1ccc(O)c([N+](=O)[O-])c1
CLASS_ASSIGNMENT: class 1
//
SMILES_INPUT: CN[C@H](CC(=O)O)C(=O)O
CLASS_ASSIGNMENT: class 0
//
SMILES_INPUT: C=C(C)[C@H]1CC=C(C(=O)O)CC1
CLASS_ASSIGNMENT: class 0
//
SMILES_INPUT: O=C(O)c1ccccc1Nc1cccc(C(F)(F)F)c1
CLASS_ASSIGNMENT: class 1
//
SMILES_INPUT: O=[N+]([O-])c1cc([As](=O)(O)O)ccc1O
CLASS_ASSIGNMENT: class 0
//
SMILES_INPUT: CS(=O)(=O)CCCCN=C=S
CLASS_ASSIGNMENT: class 1
//
SMILES_INPUT: OC[C@@H]1CCCN2CCCC[C@H]12
CLASS_ASSIGNMENT: class 0
//
SMILES_INPUT: COc1cccc(/C=C/C(=O)O)c1C(C)C
CLASS_ASSIGNMENT: class 0
//
SMILES_INPUT: Oc1c(I)cc(I)c2cccnc12
CLASS_ASSIGNMENT: class 1
//
SMILES_INPUT: Nc1ccc([As](=O)(O)O)cc1
CLASS_ASSIGNMENT: class 0
//
SMILES_INPUT: CCCCC1=NC2(CCCC2)C(=O)N1Cc1ccc(-c2ccccc2-c2nn[nH]n2)cc1
CLASS_ASSIGNMENT: class 0
